Test system: Benjaminiella poitrasii
assayText: Antifungal activity against Benjaminiella poitrasii assessed as inhibition of germ tube formation at 4 ug/mL after 6 hrs
Type: functional
propertyLabel: inhibition at 4 µg/mL (%)
Give just the number in %; leave the unit off.

Example cases with answers are listed next.
>>> obsvalue("CC1(C)O[C@@H]2[C@H](O1)[C@@H](Cn1cc(COC(=O)COc3ccccc3)nn1)O[C@H]2n1ccc(=O)[nH]c1=O")
52.5
>>> obsvalue("CC1(C)O[C@@H]2[C@H](O1)[C@@H](Cn1cc(COc3ccc(F)cc3)nn1)O[C@H]2n1ccc(=O)[nH]c1=O")
64.7
>>> obsvalue("CC1(C)O[C@@H]2[C@H](O1)[C@@H](Cn1cc(COc3cccc4ccccc34)nn1)O[C@H]2n1ccc(=O)[nH]c1=O")
72.7
>>> obsvalue("Cc1ccccc1CC(=O)OCc1cn(C[C@H]2O[C@@H](n3ccc(=O)[nH]c3=O)[C@@H]3OC(C)(C)O[C@@H]32)nn1")
67.2
>>> obsvalue("CC1(C)O[C@@H]2[C@H](O1)[C@@H](Cn1cc(COC(=O)C(=O)c3ccccc3)nn1)O[C@H]2n1ccc(=O)[nH]c1=O")
72
>>> obsvalue("COc1ccc(OCc2cn(C[C@H]3O[C@@H](n4ccc(=O)[nH]c4=O)[C@@H]4OC(C)(C)O[C@@H]43)nn2)cc1")
71.4

Then this molecule:
Request: Look at this molecule and give its reported inhibition at 4 µg/mL. CC1(C)O[C@@H]2[C@H](O1)[C@@H](Cn1cc(COc3ccc(Cl)cc3)nn1)O[C@H]2n1ccc(=O)[nH]c1=O
Response: 58.1

---

Entries and their inhibition
System: Benjaminiella poitrasii
assayText: Inhibition of chitin synthase activity in Benjaminiella poitrasii at 4 ug/mL
Give just the number in %; leave the unit off.

>>> obsvalue("CC1(C)O[C@@H]2[C@H](O1)[C@@H](Cn1cc(COc3ccc([N+](=O)[O-])cc3)nn1)O[C@H]2n1ccc(=O)[nH]c1=O")
77.8
>>> obsvalue("COc1ccc(OCc2cn(C[C@H]3O[C@@H](n4ccc(=O)[nH]c4=O)[C@@H]4OC(C)(C)O[C@@H]43)nn2)cc1")
68.5
>>> obsvalue("CC1(C)O[C@@H]2[C@H](O1)[C@@H](Cn1cc(COC(=O)Cc3ccc(O)cc3)nn1)O[C@H]2n1ccc(=O)[nH]c1=O")
73.4
>>> obsvalue("Cc1cccc(OCc2cn(C[C@H]3O[C@@H](n4ccc(=O)[nH]c4=O)[C@@H]4OC(C)(C)O[C@@H]43)nn2)c1")
82.1
>>> obsvalue("CC1(C)O[C@@H]2[C@H](O1)[C@@H](Cn1cc(COc3ccccc3)nn1)O[C@H]2n1ccc(=O)[nH]c1=O")
77.2

Request: Form field: inhibition recorded for C[C@@H]([C@H](N)C(=O)N[C@H](C(=O)O)[C@H]1O[C@@H](n2ccc(=O)[nH]c2=O)[C@H](O)[C@@H]1O)[C@H](O)c1ccc(O)cn1 with Benjaminiella poitrasii (enter value)
Response: 96.6

Request: What would you report for CC1(C)O[C@@H]2[C@H](O1)[C@@H](Cn1cc(COc3ccc(Cl)cc3)nn1)O[C@H]2n1ccc(=O)[nH]c1=O ?
Response: 95.1

Request: What would you report for CC1(C)O[C@@H]2[C@H](O1)[C@@H](Cn1cc(COC(=O)CCl)nn1)O[C@H]2n1ccc(=O)[nH]c1=O ?
Response: 75.7

---

Entries and their IC50
Test system: Cryptococcus neoformans
assayText: Antifungal activity against Cryptococcus neoformans by broth microdilution test
Format: functional, organism-based
Give just the number in µg/mL; leave the unit off.

Example cases with answers are listed next.
>>> obsvalue("CC1(C)O[C@@H]2[C@H](O1)[C@@H](Cn1cc(COc3ccc(F)cc3)nn1)O[C@H]2n1ccc(=O)[nH]c1=O")
64
>>> obsvalue("CC1(C)O[C@@H]2[C@H](O1)[C@@H](Cn1cc(COC(=O)COc3ccccc3)nn1)O[C@H]2n1ccc(=O)[nH]c1=O")
128
>>> obsvalue("CC1(C)O[C@@H]2[C@H](O1)[C@@H](Cn1cc(COC(=O)Cc3ccc(Cl)cc3Cl)nn1)O[C@H]2n1ccc(=O)[nH]c1=O")
32

Then this molecule:
Request: Look at this molecule and give its reported IC50. CC1(C)O[C@@H]2[C@H](O1)[C@@H](Cn1cc(COC(=O)Cc3ccccc3)nn1)O[C@H]2n1ccc(=O)[nH]c1=O
Response: 18
